Assay explanation: Hypoglycaemic activity: change in blood glucose after oral gavage
Format: in vivo, Sprague Dawley rats
Run parameters: 1.6 mg/kg oral gavage, normal fed male rats, 2 hours
Reported Change in Blood Glucose, 2 Hours values follow for various compounds

{"Compound": "Cc1ccc(S(=O)(=O)NC(=O)Nc2nc(C)cc(C)n2)cc1 [Compound of Example 1, reference compound]", "Change in Blood Glucose, 2 Hours [mmol/L]": -2.1}
{"Compound": "Cc1ccc(S(=O)(=O)NC(=S)Nc2ccncc2)cc1", "Change in Blood Glucose, 2 Hours [mmol/L]": -1.4}
{"Compound": "Cc1ccc(S(=O)(=O)NC(=S)Nc2cccc(Br)n2)cc1", "Change in Blood Glucose, 2 Hours [mmol/L]": -2.1}
{"Compound": "CCOc1cccc(NC(=S)NS(=O)(=O)c2ccc(C)cc2)n1", "Change in Blood Glucose, 2 Hours [mmol/L]": -2.2}
{"Compound": "COc1ccc(Cl)cc1C(=O)NCCc1ccc(S(=O)(=O)NC(=O)NC2CCCCC2)cc1 [Glibenclamide, reference compound]", "Change in Blood Glucose, 2 Hours [mmol/L]": -2.1}
{"Compound": "Cc1ccc(S(=O)(=O)NC(=S)Nc2nc(C)cc(C)n2)cc1", "Change in Blood Glucose, 2 Hours [mmol/L]": -1.6}

Measured values drawn from patent US5929082A for this set.
